Overview of reported koff across a group of binders:
# Target system: T1, human Trophoblast cell surface antigen 2 (TROP2) (human, UniProt P09758 27-274, limits assumed)
# T1 construct: Analyte in the SPR experiments and immunogen; also called human TROP2
# T1 sequence: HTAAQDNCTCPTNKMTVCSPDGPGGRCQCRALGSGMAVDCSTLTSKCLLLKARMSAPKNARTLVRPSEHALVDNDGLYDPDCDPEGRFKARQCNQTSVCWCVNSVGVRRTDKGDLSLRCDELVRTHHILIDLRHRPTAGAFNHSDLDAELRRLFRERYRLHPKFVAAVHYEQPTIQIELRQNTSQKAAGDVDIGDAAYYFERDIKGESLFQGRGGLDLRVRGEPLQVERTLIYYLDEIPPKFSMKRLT
# Test protocol: SPR affinity ranking, human TROP2
Answer with the figure and its unit, nothing else.

// solved cases for koff follow
binder="HC3/LC2 (antibody, human IgG1, kappa, V domains shown, Humanized anti-TROP2 antibody) VH: QVQLVQSGAEVKKPGASVKVSCKASGYTFTDYSINWVRQAPGQRLEWMGVISTYYGDASYNQKFKGRVTITRDTSASTAYMELSSLRSEDTAVYYCARYGDGYNQFDYWGQGTLVTVSS VL: DVVMTQSPLSLPVTLGQPASISCRVSESVDSYGNNFMHWFQQRPGQSPRRLIYRASNLESGVPDRFSGSGSGTDFTLKISRVEAEDVGVYYCQQSYEDPYTFGGGTKVEIKR" reported_result="0.00177 s⁻¹"
binder="HC5/LC1 (antibody, human IgG1, kappa, V domains shown, Humanized anti-TROP2 antibody) VH: EVQLVQSGAEVKKPGESLKISCKGSGYTFTDYSINWVRQMPGKGLEWMGVISTYYGDASYNQKFKGQVTISADKSISTAYLQWSSLKASDTAMYYCARYGDGYNQFDYWGQGTLVTVSS VL: DIVMTQSPDSLAVSLGERATINCRVSESVDSYGNNFMHWYQQKPGQPPKLLIYRASNLESGVPDRFSGSGSGTDFTLTISSLQAEDVAVYYCQQSYEDPYTFGQGTKLEIKR" reported_result="0.000235 s⁻¹"

Now look at this entry.
stdin: Query (binder): HC4/LC3 (antibody, human IgG1, kappa, V domains shown, Humanized anti-TROP2 antibody) VH: QVQLVQSGAEVKKPGSSVKVSCKASGYTFTDYSINWVRQAPGQGLEWMGVISTYYGDASYNQKFKGRVTITADESTSTAYMELSSLRSEDTAVYYCARYGDGYNQFDYWGQGTLVTVSS VL: DIVMTQSPLSLPVTPGEPASISCRVSESVDSYGNNFMHWYLQKPGQSPQLLIYRASNLESGVPDRFSGSGSGTDFTLKISRVEAEDVGVYYCQQSYEDPYTFGGGTKVEIKR ; field requested: koff
stdout: 0.000178 s⁻¹
